target: pooled human IgG (human IgG1, 2, 3 and 4) (human); assay: cell-based or functional assay; further: test concentration or dose not given here
Entries and their Enzyme Activity Endpoint Assay: IgG
The figure you give is taken to be in ng/µL; do not add the unit.

binder="PRT-394 (enzyme) MVTSVWTKGVTPPTNFTYGEDVLHAPYVANQGWYDITKTFNGKDDLLCGAATAGNMLHWWFDQNKEQIENYLKKHPEKQKINFNGEQMFDVKEAIDTKDSQLDSKLFEYFKEKAFPYLSTKHLGVFPDHVIDMFINGYRLSLTNHGPTPVKRGSKDPRGGIFDAVFTRGDQSKLLTNRHDFKEKTLKEISDLIKQELTEGKALGISHTYANVRINHVINLWGADFDAEGNLEAIYVTDSDSEASIGMKKYFVGVNSNGKVAISAKEIEEDNIGAQVLGLFTLSTGQDIWNQTN" endpoint="Enzyme Activity Endpoint Assay: IgG" reported_value=0

In the following, a different binder is considered.
Query string: Tell me the measured Enzyme Activity Endpoint Assay: IgG of PRT-419 (enzyme) MTITSVWTKGVTPPTPEDFRYNNEDVLHAPYVANQGWYDITKTFDGKDNLLCGAATAGNMLHWWFDQNKEEIERYLKKHPEKQKIIFNNQELFDVKAAIDTKDSQTNSKLFNYFRDKAFPNLSARQLGVMPDLVLDMFINGYYLNLGKTQSTDVNRPYQDKDKRGGIFDAVFTRGDQTTLLTARHDLKNKGLNEISDLIKQELTEGKALALSHTYANVRINHVINLWGADFDAEGNLIAIYVTDSDANASIGMKKYFVGVNANGKVAISAKKIEGDNIGAQVLGLFTLSTGQDQWQKLS , please.
Result string: 183
